# TEST SYSTEM: human ALK5 (recombinant TGF β1 N-term GST-tagged, 80-end) (Homo sapiens)
# Construct: human ALK5 (recombinant TGF β1 N-term GST-tagged, 80-end); GST (N)
# Sequence (P36897 80-503 limits assumed): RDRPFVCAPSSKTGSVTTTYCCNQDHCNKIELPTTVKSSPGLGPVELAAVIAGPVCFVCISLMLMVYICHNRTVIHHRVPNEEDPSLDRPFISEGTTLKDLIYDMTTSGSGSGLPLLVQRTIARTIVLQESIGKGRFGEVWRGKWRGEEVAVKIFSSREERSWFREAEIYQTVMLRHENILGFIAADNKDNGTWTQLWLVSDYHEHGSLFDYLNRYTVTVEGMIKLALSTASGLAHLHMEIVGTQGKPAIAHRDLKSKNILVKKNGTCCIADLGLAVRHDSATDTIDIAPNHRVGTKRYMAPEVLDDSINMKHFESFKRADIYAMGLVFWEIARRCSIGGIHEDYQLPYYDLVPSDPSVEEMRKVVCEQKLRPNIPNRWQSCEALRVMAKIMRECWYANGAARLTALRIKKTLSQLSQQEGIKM
# PROTOCOL NOTES: ADP-GLO kinase assay, biochemical ALK5 assay
# EXPERIMENTAL CONDITIONS: pIC50 converted to pKi using the Cheng-Prusoff equation, ATP at Km, or high ATP (30-fold Km) for very potent compounds, 25° C.
pKi: −log10 of the molar value.
QUANTITY KIND: pKi

# example entries with known answers
{"MOLECULE": "CN1CCN(CCC(=O)Nc2cc(Nc3cc(-c4cc(Cl)ccc4F)nnc3C3CCOC3)ccn2)CC1 (stereo not drawn) [Example 21]", "RESULT": "9.10 to 9.90"}
{"MOLECULE": "CN1CCN(CCC(=O)Nc2cc(Nc3cc(-c4cc(Cl)ccc4F)nnc3C3=CCCN(C(=O)OC(C)(C)C)C3)ccn2)CC1 [Example 11]", "RESULT": "9.10 to 9.90"}
{"MOLECULE": "CN1CCN(CCC(=O)Nc2cc(Nc3cc(-c4cc(Cl)ccc4F)nnc3C3CCN(C(=O)OC(C)(C)C)CC3)ccn2)CC1 [Example 2]", "RESULT": "8.50 to 9.00"}
{"MOLECULE": "CN1CCN(CCC(=O)Nc2cc(Nc3cc(-c4cc(Cl)ccc4F)nnc3C3CCC(=O)N3C)ccn2)CC1 (stereo not drawn) [Example 17]", "RESULT": "8.50 to 9.00"}
{"MOLECULE": "CN1CCN(CCC(=O)Nc2cc(Nc3cc(-c4cc(Cl)ccc4F)nnc3C3COC(C)(C)N3C(=O)OC(C)(C)C)ccn2)CC1 (stereo not drawn) [Example 20]", "RESULT": "9.10 to 9.90"}

Now, please, on to the next molecule.
API: value(readout=pKi, system=human ALK5 (recombinant TGF β1 N-term GST-tagged, 80-end) (Homo sapiens)) for record CN1CCN(CCC(=O)Nc2cc(Nc3cc(-c4cc(Cl)ccc4F)nnc3C3=CCN(C(=O)OC(C)(C)C)CC3)ccn2)CC1 [Example 1]
8.50 to 9.00

====

# TEST SYSTEM: human ALK5 (recombinant TGF β1 N-term GST-tagged, 80-end) (Homo sapiens, UniProt P36897)
# Construct: human ALK5 (recombinant TGF β1 N-term GST-tagged, 80-end); GST (N)
# Sequence (P36897 80-503 limits assumed): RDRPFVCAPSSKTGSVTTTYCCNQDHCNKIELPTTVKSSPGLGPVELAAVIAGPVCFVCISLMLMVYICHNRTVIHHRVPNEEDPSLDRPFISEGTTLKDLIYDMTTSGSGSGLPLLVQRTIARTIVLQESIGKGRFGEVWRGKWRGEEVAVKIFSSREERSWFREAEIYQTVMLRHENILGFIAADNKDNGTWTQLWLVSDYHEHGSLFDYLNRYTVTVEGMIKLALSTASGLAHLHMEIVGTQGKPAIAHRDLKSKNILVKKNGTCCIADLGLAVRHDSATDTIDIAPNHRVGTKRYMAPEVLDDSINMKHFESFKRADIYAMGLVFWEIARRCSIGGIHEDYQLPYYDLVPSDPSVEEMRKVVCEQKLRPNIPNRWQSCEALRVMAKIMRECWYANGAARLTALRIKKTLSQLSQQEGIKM
# PROTOCOL NOTES: ADP-GLO kinase assay, biochemical ALK5 assay
# EXPERIMENTAL CONDITIONS: pIC50 converted to pKi using the Cheng-Prusoff equation, ATP at Km, or high ATP (30-fold Km) for very potent compounds, 25° C.
# Experimental: The enzymatic activity of compounds of the present invention was monitored measuring the formation of ADP using the ADP-GLO Kinases assay. […] After an incubation of 120 min, the reaction was stopped, and ADP production detected with ADP-Glo kit according to manufacturer's indications. […] After an incubation of 60 min, the kinase reaction was stopped, and ADP production detected with ADP-Glo kit according to manufacturer's indications. […]
QUANTITY KIND: Ki

# example entries with known answers
{"COMPOUND": "CN1CCN(CCC(=O)Nc2cc(Nc3cc(-c4cc(Cl)ccc4F)nnc3C3=CCCN(C)C3)ccn2)CC1", "RESULT": "1 to 3.16 nM"}
{"COMPOUND": "COC(=O)N1CC=C(c2nnc(-c3cc(Cl)ccc3F)cc2Nc2ccnc(NC(=O)CCN3CCN(C)CC3)c2)CC1", "RESULT": "1 to 3.16 nM"}
{"COMPOUND": "CC(=O)N1CCC=C(c2nnc(-c3cc(Cl)ccc3F)cc2Nc2ccnc(NC(=O)CCN3CCN(C)CC3)c2)C1", "RESULT": "1 to 3.16 nM"}
{"COMPOUND": "Fc1ccc(Cl)cc1-c1cc(Nc2ccc3ncsc3c2)c(C2=CCNCC2)nn1 [Example C1, reference compound]", "RESULT": "60.3 nM"}
{"COMPOUND": "CN1CCN(CCC(=O)Nc2cc(Nc3cc(-c4cc(Cl)ccc4F)nnc3C3=CCCNC3)ccn2)CC1", "RESULT": "1 to 3.16 nM"}
{"COMPOUND": "CN1CCN(CCC(=O)Nc2cc(Nc3cc(-c4cc(Cl)ccc4F)nnc3C3CC(=O)N(C)C3)ccn2)CC1 (stereo not drawn)", "RESULT": "1 to 3.16 nM"}
{"COMPOUND": "CN1CCN(CCC(=O)Nc2cc(Nc3cc(-c4cc(Cl)ccc4F)nnc3C3CCN3C(=O)OC(C)(C)C)ccn2)CC1 (stereo not drawn)", "RESULT": "0.126 to 0.794 nM"}
{"COMPOUND": "COC(=O)N1CCC(c2nnc(-c3cc(Cl)ccc3F)cc2Nc2ccnc(NC(=O)CCN3CCN(C)CC3)c2)CC1", "RESULT": "0.126 to 0.794 nM"}

Now, please, on to the next compound.
For the compound CN1CCN(CCC(=O)Nc2cc(Nc3cc(-c4cc(Cl)ccc4F)nnc3C3CCO3)ccn2)CC1 (stereo not drawn) , what Ki is on record?
0.126 to 0.794 nM
